// provenance: patent US11839613B2

subject_of_test: UniProt P43116
Sequence (P43116 whole entry): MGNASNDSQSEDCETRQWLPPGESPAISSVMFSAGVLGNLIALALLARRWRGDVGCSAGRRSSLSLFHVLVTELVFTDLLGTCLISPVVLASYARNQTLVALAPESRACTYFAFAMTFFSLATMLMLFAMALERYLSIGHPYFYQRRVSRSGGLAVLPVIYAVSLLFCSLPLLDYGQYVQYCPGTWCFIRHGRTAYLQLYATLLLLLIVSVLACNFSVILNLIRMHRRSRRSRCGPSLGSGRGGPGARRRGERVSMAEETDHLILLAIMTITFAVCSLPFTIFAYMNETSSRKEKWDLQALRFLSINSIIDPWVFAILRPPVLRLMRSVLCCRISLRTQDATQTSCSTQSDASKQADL
protocol_notes: hEP2 b-arrestin assay (PathHunter HEK 293 PTGER2 b-arrestin cells)
test_settings: antagonistic activity, beta-arrestin assay; read-out: hEP2 b-arr IC50
pIC50: −log10 of the molar value.
Decide using pIC50: a value greater than or equal to 7 is Yes, a smaller one is No.

Q) Decide: pIC50 of `Fc1cc2ncccc2c(F)c1CCNc1cc(-c2ccc3cnccc3c2)ncn1` >= 7?
A) No

Q) // next record `CCOc1cc(-c2cc(NCCc3cc4ccsc4c(F)c3OC)ncn2)ccc1C(=O)O`
A) Yes

Q) // next record `CCOc1cc(-c2cc(NCCc3c(F)cc4ncccc4c3F)ncn2)sc1C(=O)O`
A) Yes
